# Experiment Notes: Cytotoxicity against HEK293 cells assessed as reduction in cell proliferation at 31.4 uM incubated for 72 hrs by SRB assay relative to control
# Type: toxicity, cell-based
# Reported Conditions: human, read-out: Activity
Entries annotated with measured inhibition at 72 h, 31.4 µM
Measured Endpoint: inhibition at 72 h, 31.4 µM

>>> value("O=P(O)(O)CCc1ccc(O)c(O)c1")
"15.6%"
>>> value("O=C(O)C(CP(=O)(O)O)c1ccc(O)c(O)c1 (racemic)")
"-3%"
>>> value("O=C(O)CCP(=O)(O)CC(C(=O)O)c1ccc(O)c(O)c1 (racemic)")
"10.4%"

----------
# Experiment Notes: Cytotoxicity against HEK293 cells assessed as reduction in cell proliferation at 0.1 uM incubated for 72 hrs by SRB assay relative to control
# Type: toxicity, cell-based
# Reported Conditions: human, read-out: Activity
Each entry below carries its reported inhibition at 72 h, 0.1 µM.
Measured Endpoint: inhibition at 72 h, 0.1 µM (%)

>>> value("O=P(O)(O)CCc1ccc(O)c(O)c1")
2.2
>>> value("O=C(O)C(CP(=O)(O)O)c1ccc(O)c(O)c1 (racemic)")
1.4
>>> value("O=C(O)CCP(=O)(O)CC(C(=O)O)c1ccc(O)c(O)c1 (racemic)")
13.5

----------
# Experiment Notes: Cytotoxicity against mouse Balb/3T3-L1 cells assessed as reduction in cell proliferation at 100 uM incubated for 72 hrs by SRB assay relative to control
# Format: toxicity, cell-based
# Reported Conditions: read-out: Activity
Measured Endpoint: inhibition at 72 h, 100 µM (%)

>>> value("O=P(O)(O)CCc1ccc(O)c(O)c1")
17.8
>>> value("O=C(O)C(CP(=O)(O)O)c1ccc(O)c(O)c1 (racemic)")
34.9
>>> value("O=C(O)CCP(=O)(O)CC(C(=O)O)c1ccc(O)c(O)c1 (racemic)")
33.2

----------
Listed here are compounds together with their documented Ki.
# Experiment Notes: Inhibition of Sporosarcina pasteurii CCM 2056 native urease using urea as substrate measured for 1.5 hrs by colorimetric method
Measured Endpoint: Ki (µM)

>>> value("O=C(O)C(C[PH](=O)O)c1ccc(O)c(O)c1 (racemic)")
79.3
>>> value("O=P(O)(O)CCc1ccc(O)c(O)c1")
17.7
>>> value("O=C(O)C(CP(=O)(O)O)c1cc(O)c(O)cc1Br (racemic)")
41.9
>>> value("O=C(O)C(CP(=O)(O)CC(C(=O)O)c1ccc(O)c(O)c1)c1ccc(O)c(O)c1 (mixture of isomers)")
16
>>> value("O=C(O)C(CP(=O)(O)O)c1ccc(O)c(O)c1 (racemic)")
400
>>> value("COC(=O)C(CP(=O)(O)O)c1ccc(O)c(O)c1 (racemic)")
107
>>> value("O=C(O)CCP(=O)(O)CC(C(=O)O)c1ccc(O)c(O)c1 (racemic)")
298
>>> value("COC(=O)CCP(=O)(O)CC(C(=O)OC)c1ccc(O)c(O)c1 (centres undefined)")
295
>>> value("COC(=O)C(CP(=O)(O)CC(C(=O)OC)c1ccc(O)c(O)c1)c1ccc(O)c(O)c1 (mixture of isomers)")
223

----------
# Experiment Notes: Cytotoxicity against mouse Balb/3T3-L1 cells assessed as reduction in cell proliferation at 0.31 uM incubated for 72 hrs by SRB assay relative to control
# Format: toxicity, cell-based
# Reported Conditions: read-out: Activity
Measured Endpoint: inhibition at 72 h, 0.31 µM (%)

>>> value("O=C(O)C(CP(=O)(O)O)c1ccc(O)c(O)c1 (racemic)")
15.6
>>> value("O=P(O)(O)CCc1ccc(O)c(O)c1")
5.9
>>> value("O=C(O)CCP(=O)(O)CC(C(=O)O)c1ccc(O)c(O)c1 (racemic)")
4.9
